// provenance: patent US12331035B2

Biological target: PRMT5-MEP50 enzyme complex (Homo sapiens)
Sequence (O14744 2-637 limits assumed): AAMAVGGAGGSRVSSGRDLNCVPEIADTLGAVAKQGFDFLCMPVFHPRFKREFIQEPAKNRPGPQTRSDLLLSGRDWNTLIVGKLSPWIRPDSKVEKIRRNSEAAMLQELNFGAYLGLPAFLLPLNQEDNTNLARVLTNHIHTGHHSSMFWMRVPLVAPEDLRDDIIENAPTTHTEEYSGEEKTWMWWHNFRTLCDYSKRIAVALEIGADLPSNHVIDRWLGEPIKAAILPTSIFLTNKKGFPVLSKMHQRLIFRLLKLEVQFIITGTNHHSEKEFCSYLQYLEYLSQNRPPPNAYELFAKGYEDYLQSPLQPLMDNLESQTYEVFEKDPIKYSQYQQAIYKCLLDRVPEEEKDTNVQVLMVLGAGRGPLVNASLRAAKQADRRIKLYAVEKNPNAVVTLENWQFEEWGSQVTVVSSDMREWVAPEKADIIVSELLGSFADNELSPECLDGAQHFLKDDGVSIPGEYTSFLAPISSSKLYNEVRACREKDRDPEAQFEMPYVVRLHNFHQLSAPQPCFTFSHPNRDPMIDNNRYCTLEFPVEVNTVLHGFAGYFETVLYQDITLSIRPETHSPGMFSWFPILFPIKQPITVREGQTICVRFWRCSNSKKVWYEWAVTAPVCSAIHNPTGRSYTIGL
Sequence (Q9BQA1 2-342 partner limits assumed): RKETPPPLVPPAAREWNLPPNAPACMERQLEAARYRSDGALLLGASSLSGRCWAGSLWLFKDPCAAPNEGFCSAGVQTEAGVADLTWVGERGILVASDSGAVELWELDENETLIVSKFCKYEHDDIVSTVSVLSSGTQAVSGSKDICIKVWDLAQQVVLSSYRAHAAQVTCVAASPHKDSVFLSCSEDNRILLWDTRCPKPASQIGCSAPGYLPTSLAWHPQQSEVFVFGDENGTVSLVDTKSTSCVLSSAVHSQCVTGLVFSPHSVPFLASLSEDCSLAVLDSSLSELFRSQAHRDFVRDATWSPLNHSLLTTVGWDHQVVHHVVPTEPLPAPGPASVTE
Assay: In vitro PRMT5 enzyme activity assay (methylation of histone H4 arginine H4R3, ELISA absorbance at 450 nm)
Conditions: S-adenosylmethionine, histone H4 peptide, 2 hours at room temperature, 8 points 10 μM to 0.128 nM
assay.readout: IC50

>  <compound>
CN(C)C1CCN(c2ccc3c(c2)C(C)(C)CN(C[C@H](O)CN2CCc4ccccc4C2)C3=O)CC1 [Example 111]

>  <result>
0.1 to 1 µM

$$$$

// query IC50 value for entry CC(=O)N1CCN(c2ccc3c(c2)C(C)(C)CN(C[C@H](O)CN2CCc4ccccc4C2)C3=O)CC1 [Example 104]
0.001 to 0.1 µM

For the compound shown here, O=C1c2ccc(NCC3CCOC3)cc2CCN1C[C@H](O)CN1CCc2ccccc2C1 (stereo partly shown) [Example 30] , give the reported IC50.
0.001 to 0.1 µM

Return reported IC50; argument: CCOC(=O)N1CCN(c2ccc3c(c2)CCN(C[C@H](O)CN2CCc4ccccc4C2)C3=O)CC1 [Example 65]
1 to 10 µM

Which IC50 is reported for this compound? O=C1c2ccc(N3CCC(CO)CC3)cc2CCN1C[C@H](O)CN1CCc2ccccc2C1 [Example 35]
0.001 to 0.1 µM

Request the reported IC50 associated with O=C1c2ccc(N3CCC(N4CCCC4)CC3)cc2CCN1C[C@H](O)CN1CCc2ccccc2C1 [Example 106]
0.001 to 0.1 µM

# input compound: COC(=O)N1CCN(c2ccc3c(c2)CCN(C[C@H](O)CN2CCc4ccccc4C2)C3=O)CC1 [Example 60] ; wanted: its IC50
0.1 to 1 µM

Data request, read-out IC50, for CC(C)N1CCN(c2ccc3c(c2)CCN(C[C@H](O)CN2CCc4ccccc4C2)C3=O)CC1 [Example 64]
0.001 to 0.1 µM

Give the measured IC50 of O=C1c2ccc(NCc3ccccc3)cc2CCN1C[C@H](O)CN1CCc2ccccc2C1 [Example 7] .
0.001 to 0.1 µM

Consider the compound O=C1c2ccc(CN3CCOCC3)cc2CCN1C[C@H](O)CN1CCc2ccccc2C1 [Example 43] and give its measured IC50.
1 to 10 µM

Form field: reported IC50 of CC1(C)CN(C[C@H](O)CN2CCc3ccccc3C2)C(=O)c2ccc(N3CCOCC3)cc21 [Example 112]
0.1 to 1 µM

---

Molecular target: PRMT5-MEP50 enzyme complex (Homo sapiens)
Test: In vitro PRMT5 enzyme activity assay (methylation of histone H4 arginine H4R3, ELISA absorbance at 450 nm)
Conditions: S-adenosylmethionine, histone H4 peptide, 2 hours at room temperature, 8 points 10 μM to 0.128 nM
Catalogue of IC50 values

// below: answered molecules
>  <molecule>
CN1CCC(Oc2ccc3c(c2)CCN(C[C@H](O)CN2CCc4ccccc4C2)C3=O)C1 (stereo partly shown) [Example 133]

>  <IC50>
0.001 to 0.1 µM

$$$$
>  <molecule>
CCC(=O)N1CCN(c2ccc3c(c2)CCN(C[C@H](O)CN2CCc4ccccc4C2)C3=O)CC1 [Example 69]

>  <IC50>
0.1 to 1 µM

$$$$
>  <molecule>
N#CN1CCN(c2ccc3c(c2)CCN(C[C@H](O)CN2CCc4ccccc4C2)C3=O)CC1 [Example 101]

>  <IC50>
0.001 to 0.1 µM

$$$$

# context switch: different molecule, same IC50
# query: IC50 of entry CC1(C)CN(C[C@H](O)CN2CCc3ccccc3C2)C(=O)c2ccc(N3CCN(C=O)CC3)cc21 [Example 125]
0.1 to 1 µM
